- assay.notes: Topical pharmacokinetic experiment in mice
- Assay type: in vivo
- test.context: female, Balb/c, mouse, skin, 22.5 µL of 1% w/v 10a; mice, topical 22.5 μL of 1% 10a in propylene glycol/ethanol 7/3; 2 h; read-out: concentration in the skin
value.kind: concentration at 2 h (µM)
Write down the numeric answer in µM and omit the unit.

Name the recorded concentration at 2 h of the item `CCC/N=C1\S/C(=C\c2ccc(O)c(C)c2)C(=O)N1c1ccccc1C` in your answer.
134

###

- assay.notes: Topical pharmacokinetic experiment in mice
- Type: in vivo
- test.context: female, Balb/c, mouse, whole blood, 22.5 µL of 1% w/v 10a; mice, topical 22.5 μL of 1% 10a in propylene glycol/ethanol 7/3; 8 h; read-out: concentrations in blood
value.kind: concentration at 8 h

Identify concentration at 8 h associated with the compound CCC/N=C1\S/C(=C\c2ccc(OC(C)=O)c(C)c2)C(=O)N1c1ccccc1C [Compound 10a]
4.9 µM

FYI, the data here is from paper PMC6421539.
